# TEST_TARGET: Fc
# TEST_SUMMARY: mono phage ELISA; Fc coated 100 ng/well; anti-M13-HRP
In this section we review reported OD 490 nm (Fc) values for a set of binders.
# unit: OD490 | format: bare number

INSERT INTO measurements (binder, test_value) VALUES
  ('모노 파아지 클론 F2 (scFv, V domains shown) VH: QVQLVESGAEVKKPGASVKVSCKASGYTFTNYYMHWVRQAPGQGLEWMGIINPSGGNTGYAQKFQGRVTMTRDMSTSTAYMELSSLRSEDTAVYYCARGLPWGENGLDVWGQGTTVTVSS VL: SQLVLTQPSSVSGAPGQTVTISCTGSSSNIGAGYDVHWYQQLPGTAPKVLIYGDSDRPSGVPDRFSGSKSATSASLAITGLQAEDEADYYCQSYDSSLSAYVFGTGTKVTVL', 0.0405),
  ('모노 파아지 클론 D2 (scFv, V domains shown) VH: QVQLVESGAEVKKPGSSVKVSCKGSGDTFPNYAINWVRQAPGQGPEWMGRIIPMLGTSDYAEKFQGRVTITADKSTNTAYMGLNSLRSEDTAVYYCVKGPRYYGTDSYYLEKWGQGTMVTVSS VL: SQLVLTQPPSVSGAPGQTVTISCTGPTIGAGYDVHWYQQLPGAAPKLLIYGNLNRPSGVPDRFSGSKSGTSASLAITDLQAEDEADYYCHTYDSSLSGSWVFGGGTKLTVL', 0.0415),
  ('모노 파아지 클론 A7 (scFv, V domains shown) VH: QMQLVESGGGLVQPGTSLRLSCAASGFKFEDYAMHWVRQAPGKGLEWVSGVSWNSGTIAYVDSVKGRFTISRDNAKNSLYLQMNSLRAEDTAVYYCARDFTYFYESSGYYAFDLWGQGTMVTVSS VL: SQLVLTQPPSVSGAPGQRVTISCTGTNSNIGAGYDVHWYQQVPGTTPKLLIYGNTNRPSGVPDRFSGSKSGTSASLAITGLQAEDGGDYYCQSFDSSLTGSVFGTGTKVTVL', 0.0421);

Exam item: I'd like to know its OD 490 nm (Fc). The binder in question is 모노 파아지 클론 B10 (scFv, V domains shown) VH: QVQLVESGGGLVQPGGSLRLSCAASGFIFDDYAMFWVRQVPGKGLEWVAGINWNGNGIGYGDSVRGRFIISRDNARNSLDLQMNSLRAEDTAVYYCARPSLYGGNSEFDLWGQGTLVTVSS VL: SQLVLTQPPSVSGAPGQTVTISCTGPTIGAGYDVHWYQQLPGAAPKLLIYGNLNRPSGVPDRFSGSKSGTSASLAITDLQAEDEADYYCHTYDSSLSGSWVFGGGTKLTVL
Marked response: 0.0406
